run-description: Acumen qHTS Assay for Inhibitors of the mTORC1 Signaling Pathway in MEF (Tsc2-/-, p53-/-) Cells: Sytravon; also: nearly all actives have a fitted effect of over 50% in size
test-settings: phospho-rpS6 immunofluorescence/PI, 24 h; series mostly up to 38.3 µM
About 340 (0.77%) of roughly 44,000 compounds were called active. Roughly 5% stayed inconclusive and do not appear here. Calls follow the shape of the dose curve; as a rule, active = well fitted inhibition curve with a large enough effect; inconclusive = small, poorly fitted or top-dose-only effect; inactive = flat fitted curve, though single readings scatter. Shown is part of a subset that was picked to be rich in actives.
Lab note: assign the record to one of active, inactive

Challenge: // return assay outcome for `COc1ccc(-c2cc(C(F)(F)F)nc(SCC(=O)N(C)Cc3ccccc3)n2)cc1OC`
Response given: inactive

Challenge: Same again, this time with CCCCOC(=O)CSc1ncnc2sc3c(c12)CCC(C)C3 (stereo not given)
Response given: inactive

Challenge: Repeat for the following compound: COc1ccccc1NC(=O)CSC1=Nc2ccccc2C2=NC(CC(=O)NCc3cccs3)C(=O)N12 (stereo not given)
Response given: inactive

Challenge: Field entry: `CCC(=O)N1CCc2cc(CNC(=O)Nc3ccccc3Cl)ccc21`
Response given: inactive

Challenge: Do the same for `CCNS(=O)(=O)c1cc(-c2nnc(Nc3cccc(C(F)(F)F)c3)c3ccccc23)ccc1C` please
Response given: active

Challenge: Can you check `Cc1ccc(Cn2c(CNC(=O)Cc3cccc(C)c3)nc3cccnc32)cc1` next?
Response given: inactive

Challenge: Same for CCC(C)NC(=O)Cn1c(=O)n(-c2ccc(Cl)cc2)c(=O)c2c3c(sc21)CCCC3 (stereo not given)
Response given: inactive

Challenge: // repeat for `COc1cc(NC(=O)c2noc3c2CSc2ccccc2-3)cc(OC)c1OC` and report
Response given: inactive

Challenge: # repeat for `COc1ccc(CNC(=O)CSCc2nc(-c3ccccc3F)oc2C)cc1`
Response given: inactive

Challenge: Now this one: `Cc1nc2ccccn2c(=O)c1NC(=O)c1c(F)cccc1F`
Response given: inactive
